- Target System: recombinantly produced human-NGF (human, UniProt P01138 122-241, limits assumed)
- Sequence (P01138 122-241 limits assumed): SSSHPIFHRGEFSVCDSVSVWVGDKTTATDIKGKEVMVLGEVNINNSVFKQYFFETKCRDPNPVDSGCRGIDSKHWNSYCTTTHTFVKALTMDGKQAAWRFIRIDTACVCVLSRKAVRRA
- Procedure Text: ELISA, human NGF coated, IgG titrated
Measured Parameter: EC50 (ng/mL)
Field: numeric (ng/mL). Do not append units.

Given Ab20 (antibody, human IgG1, V domains shown) VH: EVQLVQSGAEVKKPGATVKISCKVSGYSFITYWISWVQQAPGKGLEWMGAIDPSDSDARYSPSFQGRVTITADTSTDTAYMELSSLRSEDTAVYYCAKSDPGYSGYSLLYGFDSWGQGTLVTVSS VL: DIVMTQSPLSLPVTLGQPASISCRSSQSLVQRNGNTYLSWFQQRPGQPPRLLIYQVSNRYSGVPDRFSGSGSGTDFTLKISRVEAEDVGVYYCGQGAHLPLTFGQGTKVEIK , state its recorded EC50.
0.0215

Given Ab1 (antibody, human IgG1, V domains shown, Lead antibody; also called Abl) VH: EVQLVQSGAEVKKPGATVKISCKVSGYTFITYWISWVQQAPGKGLEWMGAIDPSDSDARYSPSFQGRVTITADTSTDTAYMELSSLRSEDTAVYYCAKSDPGYSGYSLLYGFDSWGQGTLVTVSS VL: DIVMTQTPLSSPVTLGQPASISCRSSQSLVQRNGNTYLSWLQQRPGQPPRLLIYQVSNRYSGVPDRFSGSGAGTDFTLKISRVEAEDVGVYYCGQGAHLPLTFGQGTKVEIK , state its recorded EC50.
0.0185

Given Ab55 (antibody, human IgG1, V domains shown) VH: EVQLVQSGAEVKKPGESLKISCKISGYSFITYWISWVRQMPGKGLEWMGAIDPSDSDARYSPSFQGQVTISADKSISTAYLQWSSLKASDTAMYYCAKSDPGYSGYSLLYGFDSWGQGTLVTVSS VL: DVVMTQSPLSLPVTLGQPASISCRSSQSLVQRNGNTYLSWYQQRPGQPPRLLIYQVSNRYSGVPDRFSGSGSGTDFTLKISRVEAEDVGVYYCGQGAHLPLTFGQGTKVEIK , state its recorded EC50.
0.0185

Given Ab29 (antibody, human IgG1, V domains shown) VH: EVQLVQSGAEVKKPGATVKISCKVSGYSFITYWISWVQQAPGKGLEWMGAIDPSDSDARYSPSFQGRVTITADKSTDTAYMELSSLRSEDTAVYYCAKSDPGYSGYSLLYGFDSWGQGTLVTVSS VL: DIVMTQSPLSLPVTLGQPASISCRSSQSLVQRNGNTYLSWYQQRPGQPPRLLIYQVSNRYSGVPDRFSGSGSGTDFTLKISRVEAEDVGVYYCGQGAHLPLTFGQGTKVEIK , state its recorded EC50.
0.0292

Given Ab38 (antibody, human IgG1, V domains shown) VH: EVQLVQSGAEVKKPGATVKISCKVSGYTFITYWISWVQQAPGKGLEWMGAIDPSDSDARYSPSFQGRVTITADKSTDTAYMELSSLRSEDTAVYYCAKSDPGYSGYSLLYGFDSWGQGTLVTVSS VL: DIVMTQSPLSLPVTLGQPASISCRSSQSLVQRNGNTYLSWYQQRPGQSPRLLIYQVSNRYSGVPDRFSGSGSGTDFTLKISRVEAEDVGVYYCGQGAHLPLTFGQGTKVEIK , state its recorded EC50.
0.0252
